Details: 298.15 K; 101.33 kPa; Liquid
measured.parameter: viscosity (mPa·s)

Past entries and their recorded results:
CCO [ethanol] :: 1.117
CCCO [propan-1-ol] :: 2.042

I: CCCCO [butan-1-ol]
II: CCc1ccccc1 [ethylbenzene]
Prompt: Of the two listed items, I and II , which carries the larger viscosity figure? Pick one and reply with its label.
Response: I
(I: 2.564 mPa·s, II: 0.628 mPa·s)

---

Conditions: 298.15 K; 101.33 kPa; Liquid
measured.parameter: mass density (kg/m3)

CCO :: 785.5
CCCCO :: 807.7
CCCO :: 799.6
CCc1ccccc1 :: 862
